# Test system: NCI-H196 SCLC complex tumor spheroid viability
# measurement protocol: Anticancer human tumor NCI-H196 cell line growth inhibition;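 further: spheroids exposed to compounds for 7 days before readout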
# condition context: second compound 0.000949 µM; first compound 0.1 µM; stronger effect = lower value
Response field label: string, one of criterion met (viability, T/C strictly below 90%) or criterion not met.

compound	assigned class
COc1cc(C)[nH]c(=O)c1CN1CCc2c(Cl)cc(C(OC)C3COC3)c(Cl)c2C1=O (stereo unspecified) + COc1cc2c(cc1O)CCNC21CSC2c3c(OC(C)=O)c(C)c4c(c3C(COC1=O)N1C(O)C3Cc5cc(C)c(OC)c(O)c5C(C21)N3C)OCO4	criterion met
Cc1cc(C)c(CNC(=O)c2cc(-c3ccc(CN4CCOCC4)cc3)cc3c2cnn3C2CCCC2)c(=O)[nH]1 + COc1cc2c(cc1O)CCNC21CSC2c3c(OC(C)=O)c(C)c4c(c3C(COC1=O)N1C(O)C3Cc5cc(C)c(OC)c(O)c5C(C21)N3C)OCO4	criterion not met
CC1COCCN1c1cc(-c2ccnn2C)c2ccnc(-c3ccn[nH]3)c2n1 (stereo unspecified) + COc1cc2c(cc1O)CCNC21CSC2c3c(OC(C)=O)c(C)c4c(c3C(COC1=O)N1C(O)C3Cc5cc(C)c(OC)c(O)c5C(C21)N3C)OCO4	criterion met
COc1ccc([C@@H](O)c2cc(-c3ncnc4cc(N5CCOCC5)ccc34)c(F)cc2Cl)nn1 + COc1cc2c(cc1O)CCNC21CSC2c3c(OC(C)=O)c(C)c4c(c3C(COC1=O)N1C(O)C3Cc5cc(C)c(OC)c(O)c5C(C21)N3C)OCO4	criterion met
CC(C)n1c(=O)n(C)c2cnc3cc(F)c(-c4ccc(OCCCN5CCCCC5)nc4)cc3c21 + COc1cc2c(cc1O)CCNC21CSC2c3c(OC(C)=O)c(C)c4c(c3C(COC1=O)N1C(O)C3Cc5cc(C)c(OC)c(O)c5C(C21)N3C)OCO4	criterion not met

Attention now turns to another entry.
Input: Would you kindly verify if viability, T/C of [2H]c1nc(C)nc([2H])c1-c1cc(NC[C@@H](C)c2cccc3c(C(=O)NC)ccnc23)ncn1 + COc1cc2c(cc1O)CCNC21CSC2c3c(OC(C)=O)c(C)c4c(c3C(COC1=O)N1C(O)C3Cc5cc(C)c(OC)c(O)c5C(C21)N3C)OCO4 is strictly less than 90%?
Output: criterion met
